Value source: patent US10206394B2

Documented pest or weed control at 250 g/ha across a set of compounds
system: Lolium perenne (LOLPE); assay: Glasshouse assay for herbicidal activity (pre- and post-emergence), percentage phytotoxicity; assay type: in vivo; conditions: Lolium perenne, post-emergence, 360 h, post-emergence, 250 g/ha, 15 DAA, visual score (100%=total damage; 0%=no damage); read-out: LOLPE POST herbicidal activity (percentage phytotoxicity)
# output: bare number, implied unit %

stdin: State, in one line, measured pest or weed control at 250 g/ha of C=CCNC(=O)CC1CC(=O)C(c2c(C)cc(C)cc2C)C1=O (stereo not drawn) [Compound A175]
stdout: 90

stdin: State, in one line, measured pest or weed control at 250 g/ha of Cc1cc(-c2ncc(Cl)cc2Cl)cc(C)c1C1C(=O)CC(CC(=O)NC(C)(C)C)C1=O (stereo not drawn) [Compound A168]
stdout: 100

stdin: State, in one line, measured pest or weed control at 250 g/ha of Cc1cc(C)c(C2C(=O)CC(CC(N)=O)C2=O)c(C)c1 (stereo not drawn) [Compound A187]
stdout: 90
